Target: HiBit-BRM fusion protein (Homo sapiens, UniProt P51531)
Construct: expressed in transfected cells
Sequence (P51531 whole entry, the tested form may be a part): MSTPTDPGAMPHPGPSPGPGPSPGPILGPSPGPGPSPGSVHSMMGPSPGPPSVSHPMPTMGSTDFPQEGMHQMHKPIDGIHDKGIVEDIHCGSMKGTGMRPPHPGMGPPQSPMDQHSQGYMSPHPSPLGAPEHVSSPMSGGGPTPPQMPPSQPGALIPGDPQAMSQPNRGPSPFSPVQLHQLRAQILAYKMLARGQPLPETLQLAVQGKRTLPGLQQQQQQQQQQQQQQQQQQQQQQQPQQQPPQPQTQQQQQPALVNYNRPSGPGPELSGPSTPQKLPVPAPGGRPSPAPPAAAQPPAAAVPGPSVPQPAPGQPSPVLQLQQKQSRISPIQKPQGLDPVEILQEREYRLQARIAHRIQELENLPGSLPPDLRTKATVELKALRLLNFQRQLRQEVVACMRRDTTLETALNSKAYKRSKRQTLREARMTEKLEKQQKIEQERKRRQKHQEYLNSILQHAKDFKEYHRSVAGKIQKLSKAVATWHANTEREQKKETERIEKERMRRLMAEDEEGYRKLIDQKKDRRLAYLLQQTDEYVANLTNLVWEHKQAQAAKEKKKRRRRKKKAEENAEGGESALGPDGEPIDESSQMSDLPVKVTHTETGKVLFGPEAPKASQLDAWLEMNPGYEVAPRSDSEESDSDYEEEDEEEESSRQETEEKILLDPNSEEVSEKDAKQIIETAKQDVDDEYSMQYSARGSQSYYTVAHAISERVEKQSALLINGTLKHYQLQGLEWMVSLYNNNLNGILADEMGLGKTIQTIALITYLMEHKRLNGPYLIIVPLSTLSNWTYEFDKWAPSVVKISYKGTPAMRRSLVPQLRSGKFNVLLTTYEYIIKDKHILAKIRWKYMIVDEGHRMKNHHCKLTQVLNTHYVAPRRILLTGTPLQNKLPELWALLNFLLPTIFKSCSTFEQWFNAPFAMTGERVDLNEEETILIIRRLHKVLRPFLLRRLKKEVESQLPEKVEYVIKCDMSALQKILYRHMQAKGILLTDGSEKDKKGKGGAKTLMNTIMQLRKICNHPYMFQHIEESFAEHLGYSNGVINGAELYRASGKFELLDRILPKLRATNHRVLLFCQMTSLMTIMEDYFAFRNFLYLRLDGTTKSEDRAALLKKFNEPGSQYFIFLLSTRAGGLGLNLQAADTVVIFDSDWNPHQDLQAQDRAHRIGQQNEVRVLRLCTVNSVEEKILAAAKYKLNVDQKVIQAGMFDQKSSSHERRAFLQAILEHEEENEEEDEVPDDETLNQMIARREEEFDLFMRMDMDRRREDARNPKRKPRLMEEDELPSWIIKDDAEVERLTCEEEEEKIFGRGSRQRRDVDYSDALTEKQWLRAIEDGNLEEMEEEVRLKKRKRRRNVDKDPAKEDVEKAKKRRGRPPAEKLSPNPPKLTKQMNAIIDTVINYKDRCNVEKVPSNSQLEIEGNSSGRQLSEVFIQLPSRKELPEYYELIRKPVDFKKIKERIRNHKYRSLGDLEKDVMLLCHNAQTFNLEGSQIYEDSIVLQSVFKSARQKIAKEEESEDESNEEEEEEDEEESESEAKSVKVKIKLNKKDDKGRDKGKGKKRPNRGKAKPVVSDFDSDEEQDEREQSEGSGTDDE
Experiment: HiBiT-BRM cell-based degradation assay (Nano-Glo HiBiT Lytic Detection, 24 h)
Settings: HeLa cell line expressing HiBiT-BRM, read-out: BRM HiBit Degradation IC50
For each record, write down the corresponding DC50.

Exercise: # DC50 lookup, item Cc1ncsc1-c1ccc([C@H](C)NC(=O)[C@@H]2C[C@@H](O)CN2C(=O)[C@@H](c2cc(OCCNC(=O)[C@H]3C[C@]4(Cc5cc(-c6ccccc6O)nnc5N4)C3)no2)C(C)C)cc1 (racemic)
Solution: > 100 nM

Exercise: # DC50 lookup, item Cc1ncsc1-c1ccc([C@H](C)NC(=O)[C@@H]2C[C@@H](O)CN2C(=O)[C@@H](c2cc(OCCN[C@@H]3CCc4[nH]c5nnc(-c6ccccc6O)cc5c4C3)no2)C(C)C)cc1
Solution: > 100 nM

Exercise: # DC50 lookup, item Cc1ncsc1-c1ccc([C@H](C)NC(=O)[C@@H]2C[C@@H](O)CN2C(=O)[C@@H](c2cc(OCC(=O)N3CC(c4cc5cc(-c6ccccc6O)nnc5[nH]4)C3)no2)C(C)C)cc1 (racemic)
Solution: > 1000 nM

Exercise: # DC50 lookup, item Cc1ncsc1-c1ccc([C@H](C)NC(=O)[C@@H]2C[C@@H](O)CN2C(=O)[C@@H](c2cc(OCCN3[C@@H]4CC[C@H]3CN(c3cc5cc(-c6ccccc6O)nnc5[nH]3)C4)no2)C(C)C)cc1 (racemic)
Solution: > 10 nM

Exercise: # DC50 lookup, item Cc1ncsc1-c1ccc(CNC(=O)[C@@H]2C[C@@H](O)CN2C(=O)[C@@H](NC(=O)CN2CC(c3cc4cc(-c5ccccc5O)nnc4[nH]3)C2)C(C)(C)C)cc1 (racemic)
Solution: > 1000 nM

Exercise: # DC50 lookup, item Cc1ncsc1-c1ccc([C@H](C)NC(=O)[C@@H]2C[C@@H](O)CN2C(=O)[C@@H](c2cc(OCCN(C)CCC(=O)N3CC(c4c[nH]c5nnc(-c6ccccc6O)cc45)C3)no2)C(C)C)cc1 (racemic)
Solution: > 100 nM

Exercise: # DC50 lookup, item Cc1ncsc1-c1ccc([C@H](C)NC(=O)[C@@H]2C[C@@H](O)CN2C(=O)[C@@H](c2cc(C3CCN(C(=O)[C@]4(N)CCc5[nH]c6nnc(-c7ccccc7O)cc6c5C4)CC3)no2)C(C)C)cc1 (relative stereo)
Solution: > 100 nM

Exercise: # DC50 lookup, item Cc1ncsc1-c1ccc([C@H](C)NC(=O)[C@@H]2C[C@@H](O)CN2C(=O)[C@@H](c2cc(N3CCN(CC(=O)N4CC(c5cc6cc(-c7ccccc7O)nnc6[nH]5)C4)CC3)no2)C(C)C)cc1 (racemic)
Solution: > 100 nM

Exercise: # DC50 lookup, item Cc1ncsc1-c1ccc([C@H](C)NC(=O)[C@@H]2C[C@@H](O)CN2C(=O)[C@@H](c2cc(OCCN3CC[C@@H](c4c(C)[nH]c5nnc(-c6ccccc6O)cc45)C3)no2)C(C)C)cc1 (single isomer, unassigned)
Solution: > 1000 nM
